System: Chang cells
ASSAY_PROTOCOL: MTT cytotoxicity assay, Chang
Format: cell-based, human
STUDY_CONDITIONS: Homo sapiens, 48 h, read-out: IC50 from MTT
EXPERIMENTAL_READOUT: IC50 (µM)
Answers are plain numbers, in µM.

* COc1cccc2c1C(=O)c1c(O)c3c(c(O)c1C2=O)C[C@@](O)(C(=O)CO)C[C@@H]3O[C@H]1C[C@H](N)[C@H](O)[C@H](C)O1 [Doxorubicin, reference compound] | 0.41

Now take the following molecule into account.
Entry O=C1C=CC[C@H](/C=C/c2ccccc2)O1 has what IC50?
63.8

---

System: HepG2 cells
ASSAY_PROTOCOL: MTT cytotoxicity assay, HepG2
Assay type: cell-based, human
STUDY_CONDITIONS: Homo sapiens, HepG2, 72 h; read-out: IC50 from MTT
EXPERIMENTAL_READOUT: IC50 (nM)
One number for each entry, in nM.

What does the data say about its IC50? Entry: COc1cccc2c1C(=O)c1c(O)c3c(c(O)c1C2=O)C[C@@](O)(C(=O)CO)C[C@@H]3O[C@H]1C[C@H](N)[C@H](O)[C@H](C)O1 [Doxorubicin, reference compound]
1060
